Biological target: T1, Human TREM2 extracellular domain (ECD), residues 19-131, C-terminally biotinylated, deglycosylated (human, UniProt Q9NZC2 19-131, C-terminally biotinylated; deglycosylated)
T1 construct: range 19-131; loaded on Superstreptavidin biosensors; also called triggering receptor expressed on myeloid cells 2; Human BLI (deglycosylated)
T1 sequence (looked up): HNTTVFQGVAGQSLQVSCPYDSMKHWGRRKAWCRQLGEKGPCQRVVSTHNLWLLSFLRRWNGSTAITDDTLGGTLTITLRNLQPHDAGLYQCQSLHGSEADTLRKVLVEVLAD
Assay: BLI steady state, deglycosylated human TREM2 ECD on sensor
pKd: −log10 of the molar value. *1 amine or outer side, *2 acyl side, *3 side chain or, on linkers, in order; H or OH if unused. Bridges are numbered along the chain shown (N, C = ends). Where no end group is shown, it is not given here. [ ]: non-standard residue; d: D form. TATA = O=C(CC[*:1])N1CN(C(=O)CC[*:2])CN(C(=O)CC[*:3])C1; Phe(4-CF3) = N[C@@H](Cc1ccc(C(F)(F)F)cc1)C(=O)O; 2Nal = N[C@@H](Cc1ccc2ccccc2c1)C(=O)O
Assign class by pKd: not lower than 6 means rule met; lower than 6 means rule not met.

Answered examples (5):
binder	category
CSEYCXWPFYHC (N-terminal acetyl (Ac); CiSEYCii[1Nal]WPFYHCiii; Ci, Cii, Ciii on TATA scaffold) [BCY20054]	rule not met
ACSEYCFWPFQYCA (linker 2-6-13 via TATA) [BCY19784]	rule met
Ac-CSEYCF[Phe(4-CF3)]PFYHC (linker 1-5-12 via TATA) [BCY20065]	rule not met
CSEYCFWPXYHC (N-terminal acetyl (Ac); CiSEYCiiFWP[1Nal]YHCiii; Ci, Cii, Ciii on TATA scaffold) [BCY19668]	rule met
ACSEYCFWPFYACA (linker 2-6-13 via TATA) [BCY18228]	rule not met

### Prompt Hello, I need to know if Ac-CSEYCF[2Nal]PFYHC (linker 1-5-12 via TATA) [BCY20056] has measured pKd not below 6. Thanks!
### Response rule not met

### Prompt Hello, I need to know if ACSEYCFWPFYPCA (linker 2-6-13 via TATA) [BCY17670] has measured pKd not below 6. Thanks!
### Response rule not met

### Prompt Hello, I need to know if ACSEYCFWPFFNCA (Ci, Cii, Ciii on TATA scaffold) [BCY17672] has measured pKd not below 6. Thanks!
### Response rule not met
